System: ATCC 25922
Assay type: cell-based, Enterococcus faecalis
Conditions: ATCC 25922, 20 h
Where a SMILES comes first, the peptide text is derived from it. [ ]: non-standard residue; d: D form. The star is where a group is joined. d(aIle) = CC[C@H](C)[C@@H](N)C(=O)O; dDab = NCC[C@@H](N)C(=O)O; Octanoyl = CCCCCCCC(=O)*; Dab = NCC[C@H](N)C(=O)O
Examples of compounds with documented MIC follow.

Past entries and their recorded results:
CCCCCCCC(=O)N[C@@H](C(=O)N[C@H](CCN)C(=O)NCC(=O)N[C@H](CO)C(=O)N[C@H](Cc1c[nH]c2ccccc12)C(=O)N[C@@H](CO)C(=O)N[C@@H](CCN)C(=O)N[C@H](CCN)C(=O)N[C@@H](CO)C(=O)N[C@@H](CCC(=O)O)C(=O)N[C@H](C(=O)N[C@@H](C(=O)N[C@@H](C)C(=O)O)[C@@H](C)CC)C(C)C)C(C)C [Oct-Ser9] (Octanoyl-[dV][dDab]G[dS][dW]S[Dab][dDab]SEV[d(aIle)]A-OH)
>64 µg/mL
CCCCCCCC(=O)N[C@@H](C(=O)N[C@H](CCN)C(=O)NCC(=O)N[C@H](CO)C(=O)N[C@H](Cc1c[nH]c2ccccc12)C(=O)N[C@@H](CO)C(=O)N[C@@H](CCN)C(=O)N[C@H](CCN)C(=O)N[C@H](C(=O)N[C@@H](CCC(=O)O)C(=O)N[C@H](C(=O)N[C@@H](C(=O)N[C@@H](C)C(=O)O)[C@@H](C)CC)C(C)C)[C@@H](C)CC)C(C)C [Oct-Ile9] (Octanoyl-[dV][dDab]G[dS][dW]S[Dab][dDab]IEV[d(aIle)]A-OH)
64 µg/mL
CCCCCCCC(=O)N[C@@H](C(=O)N[C@H](CCN)C(=O)NCC(=O)N[C@H](CO)C(=O)N[C@H](Cc1c[nH]c2ccccc12)C(=O)N[C@@H](CO)C(=O)N[C@@H](CCN)C(=O)N[C@H](CCN)C(=O)N[C@@H](CCN)C(=O)N[C@@H](CCC(=O)O)C(=O)N[C@H](C(=O)N[C@@H](C(=O)N[C@@H](C)C(=O)O)[C@@H](C)CC)C(C)C)C(C)C [Oct-Dab9] (Octanoyl-[dV][dDab]G[dS][dW]S[Dab][dDab][Dab]EV[d(aIle)]A-OH)
>64 µg/mL

Turning now to a further compound:
What value of MIC has been reported for the following compound? CCCCCCCC(=O)N[C@@H](C(=O)N[C@H](CCN)C(=O)NCC(=O)N[C@H](CO)C(=O)N[C@H](Cc1c[nH]c2ccccc12)C(=O)N[C@@H](CO)C(=O)N[C@@H](CCN)C(=O)N[C@H](CCN)C(=O)N[C@@H](C)C(=O)N[C@@H](CCC(=O)O)C(=O)N[C@H](C(=O)N[C@@H](C(=O)N[C@@H](C)C(=O)O)[C@@H](C)CC)C(C)C)C(C)C [Oct-Ala9] (Octanoyl-[dV][dDab]G[dS][dW]S[Dab][dDab]AEV[d(aIle)]A-OH)
>64 µg/mL

Data credit: paper PMC11106739
